- measured-on: T1, human LAG-3 protein with hFc tag (hLAG-3-hFc protein) (human, UniProt P18627 23-450)
- T1 construct: also called immunogen 1; LAG-3 extracellular domain protein; not shown: human IgG Fc fragment (hFc) of the pCpC vector
- T1 sequence: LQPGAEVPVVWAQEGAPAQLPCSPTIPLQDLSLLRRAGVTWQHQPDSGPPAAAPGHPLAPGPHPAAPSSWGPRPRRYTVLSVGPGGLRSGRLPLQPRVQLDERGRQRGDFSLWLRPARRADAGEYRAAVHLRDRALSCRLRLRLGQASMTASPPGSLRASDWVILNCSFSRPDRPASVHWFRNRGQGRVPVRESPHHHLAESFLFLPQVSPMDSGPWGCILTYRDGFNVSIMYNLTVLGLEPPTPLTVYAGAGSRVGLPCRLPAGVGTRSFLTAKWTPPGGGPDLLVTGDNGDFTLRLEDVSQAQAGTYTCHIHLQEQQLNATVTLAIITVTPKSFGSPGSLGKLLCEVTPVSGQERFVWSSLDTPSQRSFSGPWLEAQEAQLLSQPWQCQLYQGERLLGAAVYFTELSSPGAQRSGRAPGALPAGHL
- method-notes: FACS, blocks LAG-3-hFc binding to MHC II on Raji; 200.000 nM
attribute-measured: Inhibition rate (%)
One number for each entry, in %.

Completed entries (count: 3):
**Q:** Field request: Inhibition rate (%) | item: 105F1E10 (mouse antibody purified from hybridoma) (antibody, V domains shown, also called mAb009-105F1E10) VH: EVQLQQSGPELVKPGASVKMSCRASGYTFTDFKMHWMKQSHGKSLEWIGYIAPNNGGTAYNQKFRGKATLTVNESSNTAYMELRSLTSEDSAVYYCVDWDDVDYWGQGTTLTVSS VL: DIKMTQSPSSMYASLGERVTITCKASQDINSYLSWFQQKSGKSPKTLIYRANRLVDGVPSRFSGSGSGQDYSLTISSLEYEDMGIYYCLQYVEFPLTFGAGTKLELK
**A:** 93.1

**Q:** Field request: Inhibition rate (%) | item: 409D4E10 (mouse antibody purified from hybridoma) (antibody, V domains shown, also called mAb112-409D4E10) VH: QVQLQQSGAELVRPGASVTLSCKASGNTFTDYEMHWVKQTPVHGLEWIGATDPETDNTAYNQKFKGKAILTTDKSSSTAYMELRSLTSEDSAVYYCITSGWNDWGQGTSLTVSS VL: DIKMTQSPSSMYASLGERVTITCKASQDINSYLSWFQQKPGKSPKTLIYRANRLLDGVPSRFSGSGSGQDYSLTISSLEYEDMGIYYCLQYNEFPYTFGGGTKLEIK
**A:** 95.9

**Q:** Field request: Inhibition rate (%) | item: 405B8H3 (mouse antibody purified from hybridoma) (antibody, V domains shown, also called mAb103-405B8H3; 405B81-13) VH: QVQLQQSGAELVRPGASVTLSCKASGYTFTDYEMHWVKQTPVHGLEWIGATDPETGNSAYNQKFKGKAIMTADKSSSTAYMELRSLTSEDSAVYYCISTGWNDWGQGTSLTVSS VL: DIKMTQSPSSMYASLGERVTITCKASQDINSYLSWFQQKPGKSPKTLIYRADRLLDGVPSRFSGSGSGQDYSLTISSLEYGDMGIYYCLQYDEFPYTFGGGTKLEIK
**A:** 93.9

Now consider the entry below.
**Q:** Field request: Inhibition rate (%) | item: 409B11E12 (mouse antibody purified from hybridoma) (antibody, V domains shown, also called mAb104-409B11E12) VH: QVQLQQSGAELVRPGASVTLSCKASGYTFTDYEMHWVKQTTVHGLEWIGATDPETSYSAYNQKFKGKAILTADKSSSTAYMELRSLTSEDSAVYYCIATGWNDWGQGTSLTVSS VL: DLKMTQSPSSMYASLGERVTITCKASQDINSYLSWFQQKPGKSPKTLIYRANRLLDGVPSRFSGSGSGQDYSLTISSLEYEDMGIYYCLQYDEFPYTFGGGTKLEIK
**A:** 95
